meta.source: patent US20240287172A1

system: T1, hiR2-FL-K536A-T7 (human) (UniProt Q6PJF5)
T1 sequence: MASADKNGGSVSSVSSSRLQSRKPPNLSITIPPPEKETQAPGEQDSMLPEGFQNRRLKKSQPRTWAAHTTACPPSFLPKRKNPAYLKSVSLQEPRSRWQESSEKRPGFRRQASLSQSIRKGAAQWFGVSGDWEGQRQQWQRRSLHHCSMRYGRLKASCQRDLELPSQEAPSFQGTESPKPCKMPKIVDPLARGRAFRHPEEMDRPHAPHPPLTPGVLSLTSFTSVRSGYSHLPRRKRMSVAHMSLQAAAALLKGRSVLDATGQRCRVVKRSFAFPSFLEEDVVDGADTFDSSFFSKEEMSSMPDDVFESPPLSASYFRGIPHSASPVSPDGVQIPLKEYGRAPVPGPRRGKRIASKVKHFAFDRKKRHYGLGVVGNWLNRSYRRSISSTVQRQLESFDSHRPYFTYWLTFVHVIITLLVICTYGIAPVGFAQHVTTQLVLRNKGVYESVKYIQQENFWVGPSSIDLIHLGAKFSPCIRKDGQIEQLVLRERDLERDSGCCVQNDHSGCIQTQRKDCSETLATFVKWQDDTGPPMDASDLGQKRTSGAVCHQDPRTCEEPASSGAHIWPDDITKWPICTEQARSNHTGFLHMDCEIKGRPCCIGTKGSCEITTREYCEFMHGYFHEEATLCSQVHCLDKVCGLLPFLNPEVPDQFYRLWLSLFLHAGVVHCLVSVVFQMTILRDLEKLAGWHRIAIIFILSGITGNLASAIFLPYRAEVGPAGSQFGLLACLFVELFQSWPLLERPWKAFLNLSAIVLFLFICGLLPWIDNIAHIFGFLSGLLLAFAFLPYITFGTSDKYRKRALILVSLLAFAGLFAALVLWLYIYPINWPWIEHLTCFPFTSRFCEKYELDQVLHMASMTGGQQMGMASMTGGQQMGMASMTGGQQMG
test name: FACS on MEF-DKO cells expressing the variant, 3 µg/ml antibody
assay endpoint: loss of binding vs wild type

Reported loss of binding vs wild type for antibody 34 (antibody, V domains shown) VH: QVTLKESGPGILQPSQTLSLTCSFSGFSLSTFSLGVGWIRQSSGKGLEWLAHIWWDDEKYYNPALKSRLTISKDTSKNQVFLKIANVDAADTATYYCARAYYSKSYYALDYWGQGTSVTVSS VL: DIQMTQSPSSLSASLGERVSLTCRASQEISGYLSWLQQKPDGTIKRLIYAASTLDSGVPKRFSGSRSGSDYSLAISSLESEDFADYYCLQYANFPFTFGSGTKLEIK was > 95%
